Assay: Protein binding in rat plasma
Format: ADME, cell-free
Conditions: read-out: PPB (converted)
PARAMETER MEASURED: fraction unbound

Recorded results for 4 molecules are shown here.
SMILES RECORD: N#CC1(c2ccccn2)CCN(Cc2cc(C(=O)O)c(=O)n3ccccc23)CC1
REPORTED RESULT: 0.318
//
SMILES RECORD: O=C(N[C@H]1CCCC[C@@H]1O)c1cc(CN2CCN(c3cc4scnc4cn3)CC2)c2ccccn2c1=O
REPORTED RESULT: 0.051
//
SMILES RECORD: N#CC1(c2ccccn2)CCN(Cc2cc(C(=O)NC3CCCCC3)c(=O)n3ccccc23)CC1
REPORTED RESULT: 0.044
//
SMILES RECORD: N#CC1(c2ccccn2)CCN(Cc2cc(C(=O)N[C@H]3CCCC[C@@H]3F)c(=O)n3ccccc23)CC1
REPORTED RESULT: 0.073

A = Cc1ccc(N2CCN(Cc3cc(C(=O)N[C@H]4CCCC[C@@H]4O)c(=O)n4ccccc34)CC2)nc1
B = N#Cc1ccc(N2CCN(Cc3cc(C(=O)N[C@H]4CCCC[C@@H]4O)c(=O)n4ccccc34)CC2)cc1
C = O=C(N[C@H]1CCCC[C@@H]1O)c1cc(CN2CCN(c3cc4ccccc4cn3)CC2)c2ccccn2c1=O
Q) // sort entries: fraction unbound, high to low Could you list the labels in the order requested?
A) A, B, C
(A: 0.287, B: 0.061, C: 0.032)

Origin of the recorded values: ChEMBL document CHEMBL2203078
